System: CHO-AA8
Test: Compound concentration at which sensitizer enhancement ratio =1.6 under hypoxia.
Assay type: functional, Cricetulus griseus
Everything with C1.6 lower than 0.9 mM is false; everything else, including exactly 0.9 mM, is true.

[[record]]
compound = "Cc1ncc([N+](=O)[O-])n1CCNC(=O)CCCn1ccnc1[N+](=O)[O-]"
system_under_test = "CHO-AA8"
qualitative_label = "false"

[[record]]
compound = "O=[N+]([O-])c1nccn1CC(O)CNCCBr (stereo not given)"
system_under_test = "CHO-AA8"
qualitative_label = "false"

[[record]]
compound = "Cc1ncc([N+](=O)[O-])n1CCNC(=O)CCCCCn1ccnc1[N+](=O)[O-]"
system_under_test = "CHO-AA8"
qualitative_label = "false"

[[record]]
compound = "Cc1ncc([N+](=O)[O-])n1CCNC(=O)CCCCn1ccnc1[N+](=O)[O-]"
system_under_test = "CHO-AA8"
qualitative_label = "true"

[[record]]
compound = "O=C(CCCn1ccnc1[N+](=O)[O-])NCCn1ccnc1[N+](=O)[O-]"
system_under_test = "CHO-AA8"
qualitative_label = "true"

[[record]]
compound = "Cc1ncc([N+](=O)[O-])n1CCNC(=O)CCn1ccnc1[N+](=O)[O-]"
system_under_test = "CHO-AA8"
qualitative_label = "false"

[[record]]
compound = "Cc1ncc([N+](=O)[O-])n1CCNC(=O)Cn1ccnc1[N+](=O)[O-]"
system_under_test = "CHO-AA8"
qualitative_label = "true"

[[record]]
compound = "Cc1ncc([N+](=O)[O-])n1CCNC(=O)Cn1c([N+](=O)[O-])cnc1C"
system_under_test = "CHO-AA8"
qualitative_label = "true"

[[record]]
compound = "O=C(CCCn1ccnc1[N+](=O)[O-])NCCn1cnc([N+](=O)[O-])c1"
system_under_test = "CHO-AA8"
qualitative_label = "true"

